# System: OVCAR-3
# procedure-text: NCI tumour cell line growth inhibition, 48 h
Activity calls are given as the source filed them. Rule as the data show it: active = GI50 up to about 1.1 µM and inactive = higher.
Labels: 1 (yes) = active, 0 (no) = inactive

compound | target | group
CN(C)CCC(=O)N1C/C(=C\c2ccc(Cl)c(Cl)c2)C(=O)/C(=C/c2ccc(Cl)c(Cl)c2)C1 | OVCAR-3 | 1 (yes)
N#C[BH2-][n+]1ccc(C(=O)NNCc2ccccc2)cc1 | OVCAR-3 | 0 (no)
CCOC(=O)C1C(c2ccccc2)=C(c2ccccc2)C(c2ccccc2)=C1c1ccccc1 | OVCAR-3 | 0 (no)
CCOc1ccc(NC2=NC(=O)C(CC(=O)Nc3ccc(Cl)cc3Cl)S2)cc1 (centres undefined) | OVCAR-3 | 0 (no)
CC(=O)c1cccc(NC(=O)C(=O)C(C2OC(=O)c3ccccc32)[N+](=O)[O-])c1 (centres undefined) | OVCAR-3 | 0 (no)
COc1ccc2[nH]c(=O)cc(C)c2c1[N+](=O)[O-] | OVCAR-3 | 0 (no)
CCOP(=O)(OCC)/C(C#N)=C/c1cnc(-c2ccccc2)[nH]1 | OVCAR-3 | 0 (no)
COc1ccc(-c2nc3c(C(=O)NCCN(C)C)cccc3c3ccccc23)cc1 | OVCAR-3 | 0 (no)
Cc1ccc(NC(=O)CC(=O)n2nc(C)c(/N=N/c3ccccc3C(=O)O)c2C)cc1 | OVCAR-3 | 0 (no)
Cc1ccc(C(=O)Cc2nc3ncccc3[nH]c2=O)cc1 | OVCAR-3 | 0 (no)
COC(=O)C1(C(=O)OC)CC2c3c(c4ccccc4n3C)CC(C1=O)N2Cc1ccccc1 (centres undefined) | OVCAR-3 | 0 (no)
CN(C)c1ccc2oc(=O)c3ccccc3c2c1 | OVCAR-3 | 0 (no)
CC(=O)OC1c2ccccc2CC2(OC(C)=O)c3ccccc3C12 (centres undefined) | OVCAR-3 | 0 (no)
CC(C)(C)OC(=O)c1ccc(NCC2=C(Br)C(=O)C=CC2=O)cc1 | OVCAR-3 | 0 (no)
O=C(/C=C/c1ccccc1)/C=N/N1C(=S)N(c2ccccc2)C(=N\c2ccccc2)/C1=N/c1ccccc1 | OVCAR-3 | 0 (no)
CCN(CC)CCCC(C)NC(=O)c1ccc2c(c1)C(=O)c1ccccc1C2=O (centres undefined) | OVCAR-3 | 0 (no)
CN(C)c1ccc(/C=N\NC(=O)CSCC(=O)N/N=C/c2ccc(N(C)C)cc2)cc1 | OVCAR-3 | 0 (no)
CO[C@H]1C[C@H](O[C@H]2CC[C@]3(C=O)[C@H]4CC[C@]5(C)[C@@H](C6=CC(=O)OC6)CC[C@]5(O)[C@@H]4CC[C@]3(O)C2)O[C@H](C)[C@H]1O | OVCAR-3 | 1 (yes)
O=C1/C(=C\c2ccccc2)CN(C(=O)CCN2CCCCC2)C/C1=C/c1ccccc1 | OVCAR-3 | 0 (no)

====

# Test system: OVCAR-4
# procedure-text: NCI tumour cell line growth inhibition, 48 h
Activity calls are given as the source filed them. Cut-off read from the data, not from the text of the source: active = GI50 up to about 1.1 µM and inactive = higher.

compound | target | GI50
O=C(Nc1ccc2[nH]c(C(=O)N3CC(CCl)c4c3cc([N+](=O)[O-])c3ccccc43)cc2c1)c1cc2ccccc2o1 (stereo not drawn) | OVCAR-4 | > 100 µM (inactive)
NS(=O)(=O)c1ccc(NC(=O)N/N=C/c2ccccc2[N+](=O)[O-])cc1 | OVCAR-4 | 59.8 µM (inactive)
c1ccc(C2OCCO2)c(OCCOc2cc(OCCOc3ccccc3C3OCCO3)c(OCCOc3ccccc3C3OCCO3)cc2OCCOc2ccccc2C2OCCO2)c1 | OVCAR-4 | 8.34 µM (inactive)
CC1CC[C@@]2(OC1)OC1CC3C4CCC5C[C@@H](OC6OC(CO)C(OC7OC(CO)C(O)C(OC8OC(CO)C(O)C(OC9OC(CO)C(O)C(O)C9O)C8O)C7OC7OC(CO)C(O)C(O)C7O)C(O)C6O)[C@H](O)C[C@]5(C)C4CC[C@]3(C)C1[C@@H]2C (stereo partly drawn) | OVCAR-4 | > 80.5 µM (inactive)
OC1c2ccccc2C2C(O)c3ccccc3C12 (stereo not drawn) | OVCAR-4 | > 100 µM (inactive)
CCOC(=O)c1cc2c([nH]1)C(=O)CC1=C2CCN1Cc1ccccc1 | OVCAR-4 | 13.6 µM (inactive)
COc1ccc2[nH]c(=O)cc(C)c2c1[N+](=O)[O-] | OVCAR-4 | > 100 µM (inactive)
Nc1cc([N+](=O)[O-])ccc1C(=O)N1CCC[C@H]1CO | OVCAR-4 | > 100 µM (inactive)

====

# System: U-251
# procedure-text: NCI tumour cell line growth inhibition, 48 h
The source made the active and inactive calls. Rule as the data show it: active = GI50 up to about 1.1 µM and inactive = higher.
Collected GI50 values appear next to each entry.

compound | target | GI50
C[C@H](CCC(=O)O)[C@H]1CC[C@H]2[C@@H]3C(=O)C[C@@H]4C[C@H](O)CC[C@]4(C)[C@H]3C[C@H](O)[C@]12C | U-251 | > 100 µM (inactive)
O=[N+]([O-])c1cccc(C2=NN(c3ccccc3)C3c4cc(Br)ccc4OCC23)c1 (centres undefined) | U-251 | > 100 µM (inactive)
CN1CCN(CCSC2Cc3cc(Cl)ccc3Sc3ccccc32)CC1 (centres undefined) | U-251 | 5.4 µM (inactive)
O=C(N[C@H](CO)[C@H](O)c1ccc([N+](=O)[O-])cc1)C(Cl)Cl | U-251 | > 100 µM (inactive)

====

Collected GI50 values appear next to each entry.
# Tested on: CCRF-CEM
# procedure-text: NCI tumour cell line growth inhibition, 48 h
Structures can show the parent of a compound that is named as a salt. Calls of active or inactive are those of the source. Cut-off read from the data, not from the text of the source: active = GI50 up to about 1.1 µM and inactive = higher.

compound | GI50
NC(CCC(=O)O)C(=O)N1CCN(c2nc(N3CCCC3)c3nc(Cl)c(NCc4ccccc4)nc3n2)CC1 (configuration not stated) | 7.19 µM (inactive)
O=[N+]([O-])c1ccc(/C=N/CC2CCCN3CCCCC23)cc1 (configuration not stated) | 40.8 µM (inactive)
N/C(=N\n1c(=S)[nH]c2ccccc2c1=O)Nn1c(=S)[nH]c2ccccc2c1=O | 18.8 µM (inactive)
CC(O)CN1c2ccccc2Sc2ccccc21 (configuration not stated) | > 100 µM (inactive)
CC1(C)COC(c2ccccc2-c2ccccc2)=N1 | > 100 µM (inactive)
O=C(C[n+]1ccccc1)N/N=C(\Cc1nc2ccc([N+](=O)[O-])cc2nc1O)C(=O)Nc1cc(Cl)c(Cl)cc1Cl | > 100 µM (inactive)
COc1cccc2c(=O)c3c(n(C)c12)OC(C(C)C)C3 (configuration not stated) | > 100 µM (inactive)
COc1ccc(NC(=O)/C(Cc2cc(=O)oc3cc(O)ccc23)=N\NC(C)(C)C)c(OC)c1 | > 100 µM (inactive)
C/C(=N\Nc1ccc([N+](=O)[O-])cc1[N+](=O)[O-])c1sc(-n2nc(-c3ccccc3)cc2-c2ccccc2)nc1C | 19.5 µM (inactive)
OCC(O)C(O)C(O)C1SC(c2ccccc2)=NN1c1ccccc1 (configuration not stated) | > 81.5 µM (inactive)
CCCCCCCCCN1CCC(=O)C(C(=O)OC)C1 (configuration not stated) | 10.1 µM (inactive)
O=C1NNC2NC(=O)C3(NN2C1=O)c1ccccc1-c1ccccc13 (configuration not stated) | > 100 µM (inactive)
CCC(NC1=NCCO1)c1cccs1 (configuration not stated) | 7.36 µM (inactive)
S=C1NC(c2ccccc2)NC(c2ccccc2)S1 (configuration not stated) | 2.2 µM (inactive)
NCCN1CC2CCC(CC2)C1 | > 10 µM (inactive)
N#C[BH2-][n+]1ccc(C(=O)NNCc2ccccc2)cc1 | > 100 µM (inactive)
COC(=O)C(C)Sc1nc2cc(Cl)ccc2s1 (configuration not stated) | 78.5 µM (inactive)
CNC(=O)OC(C)CN1c2ccccc2Sc2ccccc21 (configuration not stated) | > 100 µM (inactive)
Cn1c(-c2ccccc2)cc(-c2cccs2)c1-c1cccs1 | 18.2 µM (inactive)
COC(=O)[C@@]12CC(C(C)C)[C@H]3CC(C(=O)C=C1OC)[C@H]32 (some centres not stated) | 47.5 µM (inactive)
CCCCCCCCC(C)CCCCCCCCC(=O)OCC(COP(=O)([O-])OCC[N+](C)(C)C)OC(=O)CCCCCCCCC(C)CCCCCCCC (configuration not stated) | > 100 µM (inactive)
CCOC(=O)C(C(=O)OCC)=C1NC2(c3ccccc3Nc3ccccc32)C(C#N)S1 (configuration not stated) | 6.08 µM (inactive)
CC(=O)OC(C)(C)/C=C/C(=O)[C@](C)(O)[C@H]1[C@H](O)C[C@@]2(C)[C@@H]3CC=C4[C@@H](C[C@H](O)C(=O)C4(C)C)[C@]3(C)C(=O)C[C@]12C | < 0.01 µM (active)
Oc1cc(-c2ccccc2)nc2ncccc12 | 0.0867 µM (active)
C[C@]12CC/C(=N\OCCN3CCCC3)C=C1CCC1C2CC[C@@]2(C)C1CC[C@]2(C)O (some centres not stated) | 3.56 µM (inactive)
COc1ccc(/C=C2\CCC(C)C3C2=NN(c2ccccc2)C3c2ccc(OC)c(OC)c2)cc1OC (configuration not stated) | 1.87 µM (inactive)
Cc1c(CN)c(C)c(CN)c(C)c1CN | > 100 µM (inactive)
Cc1cc(C)cc(Nc2nnc3n2S(=O)(=O)c2cc(C#N)c(Cl)cc2S3)c1 | 1.07 µM (active)
CC(=O)Nc1n[n+]([O-])c2cc(C)ccc2[n+]1[O-] | 2.05 µM (inactive)
ClC(Cl)(Cl)C1CCOC1n1nnc2ccccc21 (configuration not stated) | 44.1 µM (inactive)
CN(C)CCNCc1c2ccccc2c(CNCCN(C)C)c2ccccc12 | 20.8 µM (inactive)
O=C1c2c(O)ccc(O)c2C(=O)c2c(NCCNCCO)ccc(NCCNCCO)c21 [MITOXANTRONE HYDROCHLORIDE] | 0.00598 µM (active)
CCN(CC)CCC(=O)c1ccc(C)cc1 | 10.1 µM (inactive)
CCc1c(C)c(C#N)c(=S)n(C2OC(CO)C(O)C(O)C2O)c1C (configuration not stated) | > 100 µM (inactive)
COc1cc2c(cc1C)NC(=O)/C2=C\c1cccnc1 | 20.8 µM (inactive)
CSc1ncc2c(C#N)c3[nH]c4ccccc4n3c(=O)c2n1 | 4.92 µM (inactive)
COc1cc2c3cc1Oc1c(O)c(OC)cc4c1[C@H](Cc1ccc(cc1)Oc1cc(ccc1O)C[C@H]3N(C)CC2)N(C)CC4 | 10.4 µM (inactive)
C(=N\c1ccc(-c2nc3ccccc3[nH]2)cc1)/c1ccco1 | 16.5 µM (inactive)
Cc1cc(S(=O)(=O)Nc2nnc3cnc4ccccc4n23)c(S)cc1Cl | > 100 µM (inactive)
COC(=O)c1ccccc1C1=C([N+](=O)[O-])C(c2ccccc2)C(C#N)=C(N)O1 (configuration not stated) | 30.1 µM (inactive)
CCN1C(=O)C/C(=C\C(C)=O)Nc2ccccc21 | > 100 µM (inactive)
O=C1c2c(F)c(F)c(F)c(F)c2SC2=Nc3cccc4cccc(c34)N12 | 3.31 µM (inactive)
